Experiment: NCI Yeast Anticancer Drug Screen. Data for the rad52 strain (AID 147);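 note: 0% = growth of vehicle-treated control cultures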
Conditions: S. cerevisiae rad52 mutant growth inhibition; at 3.7 µM; stronger effect = higher value
This is part of a sample that, as a whole, favours compounds with a hit. Of some 79,000 tested, about 15% had one in any assay.
Provide the reported growth inhibition of each item.
Answers are plain numbers, in %.

Worked cases, answers included:
>>> measured_value("O=C(O)CCCC1CCCc2c1ccc1ccccc21 (stereo not drawn)")
1
>>> measured_value("COC(C(O)CO)C(O)C(O)C(=O)NNc1ccccc1 (stereo not drawn)")
23
>>> measured_value("O=C(NCCCl)Sc1ccc(Cl)cc1")
7

# per-item lookup of growth inhibition; items listed below
1. COc1ccc(/C=C/C(=O)c2ccccc2)cc1OC
2. c1ccc(-c2cnc3ccccc3c2)cc1
3. CN(C)CCNC(=O)c1cccc2cc([N+](=O)[O-])ccc12
4. Cc1cc(C(C)(C)C)c(OCCCN2CCOCC2)c(C(C)(C)C)c1
5. O=C(CSC(=S)N1CCCCC1)Nc1nc2c(s1)CCCC2
6. O=C1c2cccnc2C(=O)C2C3C=CC(C3)C12 (stereo not drawn)
7. COc1ccc2c(c1)n([O-])c1ccccc1[n+]2=O

1: -42; 2: 3; 3: 20; 4: -9; 5: 6; 6: 35; 7: 48

# per-item lookup of growth inhibition; items listed below
1. COC(=O)CC1(O)C(/C=C/c2ccccc2)C(C(=O)OC)C(=O)C(C(=O)OC)C1C(=O)OC (stereo not drawn)
2. CC1(C)CC(=O)C(/C=N/c2nc(-c3ccccc3)cs2)=C(O)C1

0
5

The measurements presented in this section are drawn from PubChem BioAssay (NCI).
